protein stability index listing for selected sequences.
Test: protein stability index of a GFP-peptide fusion (GPS, HEK-293T) (PSI 1-6); higher = more stable;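 note: 24-mer peptide tiles fused after GFP, lentivirally expressed, FACS-sorted into six equal bins by GFP/DsRed ratio, decoded by Illumina sequencing, PSI is the read-weighted mean bin number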
Settings: treatment: MLN4924 1 uM, 8 h; c terminus: a fixed tail appended
Enter a number only.

Look over these answered cases.
In [3]: df
Out[3]:
                            residues  observedresult
0   RRVHLTEDQWGKGTLTPRMTTDFD [TRIM9]               4
1  AQPPDYTFPSGSGAHFPQVPGGAV [PI4K2A]            4.01
2  AYCLDQGAEDGDRAILYPCHGMSS [GALNT9]            3.69
3   FCREEMGEVLKSSTFSSGPSDKMK [SPOPL]            3.69
4    GFGLAHTPLEPDAKDLPCDSKPES [TBX5]            5.47
5   IHCENCKTTLGWKYEQAFESSQKY [YPEL3]            2.62
6   TKMWHPNIYETGDVCISILHPPVD [CDC34]            2.12
7    WDPHNGDILMEFGHLFPPPTPIFA [WSB1]            2.21

Qu. Which protein stability index is reported for this sequence? ESLSSQLSNLQKESRACLERIQEL [LMNB1]
Ans. 4.38

Qu. Which protein stability index is reported for this sequence? PGPGIGGDAHFDEDERWTNNFREY [MMP1]
Ans. 4.2

Qu. Which protein stability index is reported for this sequence? TYVAKMSEPHYGHAGTVYGGVMYI [KLHL13]
Ans. 2.52

Qu. Which protein stability index is reported for this sequence? LPCDLPKVVSRAENLSVPVIGALL [LPCAT4]
Ans. 2.27

Qu. Which protein stability index is reported for this sequence? IAQDTCTTTDHSSNPGPVPGSSSG [SPAG8]
Ans. 5.26

====

Assay: protein stability index of a GFP-peptide fusion (GPS, HEK-293T) (PSI 1-6); higher = more stable
Details: treatment: MLN4924 1 uM, 8 h; c terminus: a fixed tail appended
metric: protein stability index
Enter a number only.

Look over these answered cases.
>>> print(df.to_string())
                            residues  observedresult
0   PNADLLFSDPSQSDPETKDFWLNM [FCHO1]            4.19
1  PIDVVEKYDPKTQEWSFLPSITRK [KLHL12]            4.64
2  PAPCADGPAGGLADLSSGSSGEDD [PWWP2B]            5.66
3  TKLSAQSAQYSQQLQAARNEYLLN [FCHSD1]            3.33
4   FEEYALVNQDILENKESWDKILAL [PRIM1]             3.6

Qu. Which protein stability index is reported for this sequence? VVCVLLNLAGFILGCQGAQFVSSV [FAM189A2]
Ans. 2.21

Qu. Which protein stability index is reported for this sequence? GLKADTLKERYQKIGDTKRNTPIE [CSNK1G1]
Ans. 4.53

Qu. Which protein stability index is reported for this sequence? SLRIALSEHLKQRREVAKTVFCLV [EDNRA]
Ans. 2.26

Qu. Which protein stability index is reported for this sequence? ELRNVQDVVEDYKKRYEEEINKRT [KRT71]
Ans. 4.45

Qu. Which protein stability index is reported for this sequence? DVVEYLVDRCGASVEAGGSVHFDG [FEM1A]
Ans. 2.46

Qu. Which protein stability index is reported for this sequence? STVKNEFSLKTFKRKSEVERAVKR [MATN2]
Ans. 4.39

====

Experiment: protein stability index of a GFP-peptide fusion (GPS, HEK-293T) (PSI 1-6); higher = more stable
Details: treatment: DMSO; c terminus: a fixed tail appended
metric: protein stability index
Enter a number only.

Look over these answered cases.
                              residues  observedresult
0    RTANPSKTIDLGAAAHYTGDKASP [CLINT1]            4.99
1      FVGAIFNGLTLLILGVIGLFTIPL [RTN2]            2.02
2  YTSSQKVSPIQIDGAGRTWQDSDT [TOR1AIP2]            3.62

Qu. Which protein stability index is reported for this sequence? VRSGAWHFSFNVKFYPPDPAQLSE [EPB41L3]
Ans. 1.98

Qu. Which protein stability index is reported for this sequence? CYTFSVLITFDNKAHSGRIPISLE [MCOLN1]
Ans. 3.58

Qu. Which protein stability index is reported for this sequence? NLENPMRRIHSLPQKLLGCSPALK [CDC25A]
Ans. 2.64

====

Assay: protein stability index of a GFP-peptide fusion (GPS, HEK-293T) (PSI 1-6); higher = more stable
Conditions: treatment: MLN4924 1 uM, 8 h; c terminus: a fixed tail appended
protein stability index listing for selected sequences.

Look over these answered cases.
>>> print(df.to_string())
                           residues  observedresult
0   NLTSPASITFTTGLEAPRDLEAKE [TNXB]            5.51
1  EEEEGTMMKAKGDLEMKEEEEISE [ZBED2]            5.53

Qu. Which protein stability index is reported for this sequence? TLRTLTGQDTMLKAMFSGRVEVLT [KCTD13]
Ans. 2.37

Qu. Which protein stability index is reported for this sequence? LYFSIHRYEQGRFWPHLKASNWST [HDAC6]
Ans. 2.73

Qu. Which protein stability index is reported for this sequence? TSSSDDDEEVSGSSKTITAEIPDG [C18orf25]
Ans. 5.49

Qu. Which protein stability index is reported for this sequence? SFIKNSDSFDKFEFCEPAFVVGNC [PCMTD1]
Ans. 2.62

Qu. Which protein stability index is reported for this sequence? GNVKIDSQKLNFREHAKARVDHGA [MAP2]
Ans. 4.23

====

Assay: protein stability index of a GFP-peptide fusion (GPS, HEK-293T) (PSI 1-6); higher = more stable
Settings: treatment: DMSO; c terminus: a fixed tail appended
protein stability index listing for selected sequences.
Enter a number only.

>>> print(df.to_string())
                            residues                   metric  observedresult
0  GAQMEKEWARALETRDWGGAQFEG [ZSWIM9]  protein stability index            4.11
1   VGEPEFHYIAGAHGNEVLGRELLL [CPXM2]  protein stability index            2.88
2  FLSSEKQICGTHRQTKKMFCDMDK [TRIM43]  protein stability index            3.18
3    VVRICCIRSFGHFIARLQGSILQF [SMG5]  protein stability index            2.57
4   CIHTGLSQYIAVEAAEGRNKNEVF [FBXO3]  protein stability index            3.38
5  ELRLQSEAFKKHSLDLLSKERELN [CCDC89]  protein stability index             3.8
6  EETRQKQLLADEKMKQLTEETEVL [TRIM35]  protein stability index            5.65
7   RYFGARAILGEQRPRQRQRVYPKC [TCF25]  protein stability index            3.84
8   ALRLAELARRRRRRQARREAEADK [NOP53]  protein stability index            4.12
9    AESRGHSKGWGRNYASIIRRDCMW [MYCL]  protein stability index            2.23

Qu. Which protein stability index is reported for this sequence? KQPLRKYVTPSDFDQLKQFLTFDK [EFHC1]
Ans. 2.94

Qu. Which protein stability index is reported for this sequence? RLSVLLNLLPAAGELQESGLALCP [SMG5]
Ans. 2.02

Qu. Which protein stability index is reported for this sequence? PTFRFLTKMWHPNIYENGDVCISI [UBE2R2]
Ans. 3.01

Qu. Which protein stability index is reported for this sequence? MASRKTKKKEGGALRAQRASSNVF [MYL5]
Ans. 4.13

Qu. Which protein stability index is reported for this sequence? QGKDWGFKKFIRRDFLLDEANGLL [SPOPL]
Ans. 2.72

Qu. Which protein stability index is reported for this sequence? SFSLVKLVLRRQLKNKCCPPPCKF [C22orf31]
Ans. 2.29

Qu. Which protein stability index is reported for this sequence? RAPVVGVRVNVLLSRYLIEPCGPG [DLC1]
Ans. 2.45

Qu. Which protein stability index is reported for this sequence? LERNPNGVADGVIKSVLWQTLQAL [CDKL4]
Ans. 2.28

Qu. Which protein stability index is reported for this sequence? DIQIVERKKSADVLALADEAGYYF [ADAMTSL2]
Ans. 3.08

Qu. Which protein stability index is reported for this sequence? LTLCKSDLESQVESLREELICLKK [KRT34]
Ans. 2.89
